System: NCI-H226
Protocol: NCI tumour cell line growth inhibition, 48 h
Active and inactive are the calls of the source. No stated cut-off is given here; in the data, active = GI50 up to about 1.1 µM and inactive = higher.
Classes used: active, inactive

In [3]: df
Out[3]:
                                    molecule  test_target     label
 0        CCOc1nc(N)nc(C)c1/N=N/c1ccc(Cl)cc1     NCI-H226  inactive
 1  COC(=O)C1=C(C(=O)OC)C2(C)C=CC1O2 (configuration not stated)     NCI-H226  inactive
 2                        Brc1ccc2ns[s+]c2c1     NCI-H226  inactive
 3  Clc1ccc(Cc2nc3ccccc3nc2-c2cccc(Cl)c2)cc1     NCI-H226  inactive
 4       CCSc1nc(N/N=C/c2cccs2)c2cnn(CO)c2n1     NCI-H226  inactive
 5  O=C(NCCCN(CCCCN(CCCNC(=O)C(F)(F)F)CCCc1ccccc1)CCCc1ccccc1)C(F)(F)F     NCI-H226  inactive
 6                  Brc1ccc(/N=N/N2CCCC2)cc1     NCI-H226  inactive
 7  O=S(=O)(N/N=C/c1ccc(/C=N/NS(=O)(=O)c2ccccc2)cc1)c1ccccc1     NCI-H226  inactive
 8  CN(C)CCn1c(=O)c2ccc(NCCNCCO)c3c(=O)c4cc(O)ccc4n(c1=O)c23     NCI-H226    active
 9      CNS(=O)(=O)NN(C)S(=O)(=O)c1ccc(F)cc1     NCI-H226  inactive
10  CCOC1(OCC)C2C=CC1C(COS(=O)(=O)c1ccc(C)cc1)C2COS(=O)(=O)c1ccc(C)cc1 (configuration not stated)     NCI-H226  inactive
11  CCCOc1ccc(/C(Cl)=C(\C=O)c2ccc(OC)c(OC)c2)cc1OCCC     NCI-H226  inactive
12  COC(=O)C(=O)C(C(=O)C(=O)Nc1cc([N+](=O)[O-])ccc1[N+](=O)[O-])c1nc2ccc(C(=O)c3ccccc3)cc2nc1O (configuration not stated)     NCI-H226  inactive
13  C=C(CCOC)CCC1CCCCC(=C)[C@H]1O (some centres not stated)     NCI-H226  inactive
14    N#CC(C#N)=C(N)/C(C#N)=C/c1ccc2ccccc2n1     NCI-H226  inactive
15  CC(C)(C)C1CCC2c3c([nH]c4ccccc34)C3C(=O)N(c4cccc([N+](=O)[O-])c4)C(=O)C3C2C1 (configuration not stated)     NCI-H226  inactive
16  COc1ccc(OC)c(NC(=O)CCC/C(CC(=O)c2ccc(O)c(OC)c2)=N\Nc2ccc([N+](=O)[O-])cc2)c1     NCI-H226  inactive
17  C=CC[C@@H](N)C(=O)N(C)[C@@H](C)[C@@H](O)c1ccccc1     NCI-H226  inactive
18  OC(c1cc2ccccc2o1)c1cc2ccccc2s1 (configuration not stated)     NCI-H226  inactive
19  Cc1ccc(S(=O)(=O)c2c(O)c3ccc(O)c(C)c3oc2=O)cc1     NCI-H226  inactive
20  CCOP(=O)(C/C(O)=C1\C(=O)C(CCCNC(=O)OC(C)(C)C)N(Cc2ccc(OC)c(OC)c2)C1=O)OCC (configuration not stated)     NCI-H226  inactive
21  CC1=CC(N2C(=O)C(C)=CC2O)NC1=O (configuration not stated)     NCI-H226  inactive
22        C/C(=N\NS(=O)(=O)c1ccccc1)c1ccccc1     NCI-H226  inactive
23  CC(=O)O[C@H]1CC[C@@]2(C)C(=CC[C@@H]3C2CC[C@]2(C)Nc4[nH]ncc4CC32)C1 (some centres not stated)     NCI-H226  inactive
24  Oc1ccc2c3c1OC1C(=NN=C4CCC5(O)C6Cc7ccc(O)c8c7C5(CCN6CC5CC5)C4O8)CCC4(O)C(C2)N(CC2CC2)CCC314 (configuration not stated)     NCI-H226  inactive
25  CCOc1ccc(C(CN2CCOCC2)C(C)=O)cc1OC (configuration not stated)     NCI-H226  inactive
26  C[C@@H]1CC[C@@]2(NC1)O[C@H]1C[C@H]3[C@@H]4CC[C@H]5C[C@@H](O)CC[C@]5(C)[C@H]4CC[C@]3(C)[C@H]1[C@@H]2C     NCI-H226  inactive

* * *

Test system: SF-295
Protocol: NCI tumour cell line growth inhibition, 48 h
Active and inactive are the calls of the source. No stated cut-off is given here; in the data, active = GI50 up to about 1.1 µM and inactive = higher. Where a SMILES comes first, the peptide text is derived from it. [ ]: non-standard residue; d: D form. Ac5c = NC1(C(=O)O)CCCC1
Classes used: TRUE = active, FALSE = inactive

Molecule	Test target	Label
CSc1ncc2c(n1)sc1c(=O)n(-c3ccccc3)cnc12	SF-295	FALSE
CCCCc1ccc(C#CC#Cc2ccc(CCCC)s2)s1	SF-295	FALSE
Cc1cn(C2CC(O)C(CO)C2C)c(=O)[nH]c1=O (stereo not given)	SF-295	FALSE
Brc1ccc2ns[s+]c2c1	SF-295	FALSE
CCc1n[nH]c(=O)n1-c1ccc2ccccc2c1	SF-295	FALSE
CC1(C)C(=O)C(C)(C)C1=S	SF-295	FALSE
CCOC(=O)C1=C(Nc2ccc(Br)cc2)OCC1=O	SF-295	FALSE
CC(C)(OCc1ccccc1)c1ccccc1P(c1ccccc1)c1ccccc1	SF-295	FALSE
c1ccc(COc2nc3cc(C45CC6CC(CC(C6)C4)C5)ccc3[nH]2)cc1	SF-295	FALSE
CCCCCCc1cc(C=O)sc1-c1ccc(-c2sc(-c3ccc(-c4ccc(-c5cc(CCCCCC)c(-c6ccc(-c7sc(C=O)cc7CCCCCC)s6)s5)s4)s3)cc2CCCCCC)s1	SF-295	FALSE
Cc1noc(NC(=O)Nc2ccccc2F)c1C#N	SF-295	FALSE
CC1=C(C(=O)OCCc2ccc([N+](=O)[O-])cc2)C(c2cccc([N+](=O)[O-])c2)C(C(=O)OC(C)C)=C(C)N1 (stereo not given)	SF-295	FALSE
Cc1ccc2c(=O)cc(-c3ccc(-c4ccccc4)s3)[nH]c2n1	SF-295	FALSE
COc1ccc(OC)c(NC(=O)C(=O)C(C(C)=O)c2nc3ccc(Cl)cc3nc2O)c1 (stereo not given)	SF-295	FALSE
O=C1Nc2ccccc2/C1=N/Nc1c(F)c(F)c(F)c(F)c1F	SF-295	FALSE
CC(C)(C)C1CC[C@H]2c3c([nH]c4ccc(Br)cc34)[C@H]3C(=O)N(c4ccccc4)C(=O)[C@H]3[C@H]2C1 (stereo not given in full)	SF-295	FALSE
CC(=O)C1=C(C)N(c2ccccc2)C2(O)C3=C(C(=O)c4ccccc4C3=O)C(O)=CC12Cl (stereo not given)	SF-295	FALSE
CC(=O)OC1(C)CC(C)C(=O)C(C(O)CC2CC(=O)NC(=O)C2)C1 (stereo not given)	SF-295	TRUE
O=C(Nc1cccc(O)c1)C(=O)C(C(=O)c1ccccc1F)C1OC(=O)c2ccccc21 (stereo not given)	SF-295	FALSE
CCNC1=C(NC(=O)CC)C(=O)c2ccccc2C1=O	SF-295	FALSE
O=C1Sc2ccccc2/C1=N/Nc1ccccc1[N+](=O)[O-]	SF-295	FALSE
COc1ccc(C(CC(=O)c2ccccc2)C(=O)c2ccc3c(c2)OCO3)cc1 (stereo not given)	SF-295	FALSE
CC(=O)NC1C(OCC(=O)NCCNc2ccc([N+](=O)[O-])c3[nH]c4ccccc4c(=O)c23)C(O)C(CO)OC1(C)OCc1ccccc1 (stereo not given)	SF-295	FALSE
CC1(C#N)CC(C)(C)C(/C=C2/CC(C)(C)C(/C=C3/OC(=N)CC3(C)C)=N2)=N1 (stereo not given)	SF-295	FALSE
Cc1ccc2ccccc2c1CSc1nc(N)nc2c1ncn2CC(C)C	SF-295	FALSE
COC(=O)C1(NC(=O)C(C)NC(=O)C(CCCCN)NC(=O)C(CC(C)C)NC(C)=O)CCCC1 (stereo not given) (Ac-LKA[Ac5c]-OMe; configuration not given here)	SF-295	FALSE
CC12C=CC(C)(C3C(=O)C4C(C(=O)C31)C1(C)C=CC4(C)[S+]1[O-])[S+]2[O-] (stereo not given)	SF-295	FALSE
Cc1ccc(S(=O)(=O)c2c(O)c3ccc(O)c(C)c3oc2=O)cc1	SF-295	FALSE
O=C1C(=O)c2ccccc2C=C1[N+](=O)[O-]	SF-295	FALSE
Clc1ccc2nc3[nH]nc(Cl)c3nc2c1	SF-295	FALSE

* * *

System: OVCAR-3
Protocol: NCI tumour cell line growth inhibition, 48 h
Active and inactive are the calls of the source. No stated cut-off is given here; in the data, active = GI50 up to about 1.1 µM and inactive = higher.
Classes used: active, inactive

                                   compound     label
0  CCOC(=O)C(C)c1nc2cc(C(F)(F)F)ccc2[nH]c1=O (centres undefined)  inactive
1  CN(C)CCN1Nc2c3ccccc3nc3c(C(=O)NCCCN(C)CCCNC(=O)c4ccc5c6c(c7ccccc7nc46)NN5CCN(C)C)ccc1c23    active
2  COC1=CC(=O)c2c(O)c3c(c(O)c2C1=O)CC(C)(O)OC3 (centres undefined)    active
3  CCN1CN(c2ccccc2)C2(CCN(CC(CC3OCCO3)c3ccc(F)cc3)CC2)C1=O (centres undefined)  inactive

// provenance: ChEMBL document CHEMBL1201862
